# ASSAY_TEXT: soluble on expression in E. coli; label from the status in PepcDB or PDB records
QUANTITY_KIND: soluble on expression in E. coli

Examples with answers:
APEAFLNSVLQPFVLPFLQRYPKIQLKLRAADGEIDLFRQGIDVAFKLTDKPDENLVLKEISKTNLVLCASPDYLAQRGMPEHPTQLEQHDCIYLAENDKDNIWSFFKEEAFHSIAVSGRYAVNHSQMRLNGVKAGLGIGIFHDFVVKEALERGEVVEVLSDWMIKSNYHGAVAMQYAQTKYMPARLRVFIGFVNEHLVSKEPTHV    not soluble
GPGSNYTFSMRATLDDPDVQNGITQGDRQQIQDAVNAASSWLEKNREATKEEYMEQTKLIEGIAHPILSEFYKKRVMEAPPSAGPKDGAPSDEVPHAEDVD    soluble
MSDEEEEDVNFKPGTEISSTKANYTVVRLLGEGGFGAVYLVQDNKSKKQSAMKVERKIEKRKHSKLKMEIAILKLVGSGKHFTQIVDRGKKDKEGFFFLVMELVGKSLADLKADRPDKVFSFATGLGVSCQCLEAVEELHKTGFIHRDLKPQNYACGLDEKRHNIYILDFGIARKYLNTKNELKTPRETVGFKGTVRFAPIACHRNTEMGPKDDCESWFYLLLDLIVPSGLPWRKLSDKHEVLKEKEECRKDKRSSLFAGLRQTDYLSKVLDYIDGRAYQDRVDYQFIYKNLAEACKVCNLDIDSPYDWELQKPEKTSKEPTSSKMP    not soluble
MYKIMPLKVAEISVPLGVTIMMGDMRVMATGPVYVWVIDGGDEKIVVDSGVEEAKNGMFHGFPGKGGGEKGLREAMEKVNLKPEDVDKLIITHLHFDHAANAKLFTNARIYVQKREWESALNPPLHYRQTYDSSMLYPLEEMDLCLIDGDVEIAEGVKAVLLPGHTKGLQGVAVETEKGTYLLAADHFYTYFNFFPPKQPIQMTDTAGNTVEIPTSPLPFLPPGLHVDLSEWYESCFKALSVAKKANILPGHDPSLEGRVFPLEHHHHHH    not soluble
MSLEKPKYKRIVLKLSGEALAGEQGNGINPTVIQSIAKQVKEIAELEVEVAVVVGGGNLWRGKTGSDLGMDRATADYMGMLATVMNSLALQDSLETLGIQSRVQTSIEMRQVAEPYIRRKAIRHLEKKRVVIFAAGTGNPYFSTDTTAALRAAEIEADVILMAKNNVDGVYNADPRKDESAVKYESLSYLDVLKDGLEVMDSTASSLCMDNDIPLIVFSIMEEGNIKRAVIGESIGTIVRGKEGHHHHHH    soluble

Report soluble on expression in E. coli for each item below.
1. MGSDKIHHHHHHMVNFSYRVFAAVVEKKTFFHAAESLNVTPSAVSHSISQLENELGFPLFLRNHSGVELTNDGKTVLPVIQAILNTEEELYQVSASIKGLNSGRIRIGAFSSVCINWLPTIIRRFKNQYPQVEVTVFQGNFNQIADGVSNGSIDIGFSSLPVDDKLLVEPLIKDRIYCVAPSDFVPKDKMNVTNQDIGRRRFILQQIDYDRDTKKALDQYNVTPNSLTYSIDDQSILSMVESGLGLGILPELALKKLSGNVHIYPFDKNFARTICLVTNKNLAQAPSTKRMLKEINSFLRSNYKNQFLG
2. MSLILASLVRYYRRLATETDETGNPKVPSYGFSEEKIGWILVLDKEGRLKTVVPNLTADKKPQPKLMSVPRPEKRTSGIKPNFLWDKTAYALGVEANKNKAEAKEKPFTPSEKTFEAFKQYHLDLLQNSEDEGLQALCRFLQNWQPAHFAAENLPAEMLDSNTAFSLEKPTALIHKREAAQTLWAGCLKSDEALESLCLISGDTAPIARLHPAIKGVFGGQSSGGSIISFNKEAFSSFGKEQGANAPVSEQSAFAYTTALNYLLRRENNHCLTIGDASTVFWAEADDIVDEGHHHHHH
3. MSLSFSAKVKGEICRYIDISKEEALAQISAIMKVCGTLAFSGRQISFKMTTENPASARLMFTILKDYFDIHAKLMVKKSNSLKKNNIYMVVVTEEMGVKKLLEITGILREIDGIMSLDYHIDENLVDTEEKKKAYIRGAFIGGGSISNPEKTYHLEFVTHSQEYAEDLGKLINTFGLKAKVIQRKNSYIVYIKEGEQIVDLLNIIGAHTALLELENIRIMKEMRNNVNRLVNCETANLSKTVNAAVRQVESIKLIEREIGLARLPKNLREVAELRLTYPEESLKELGEMLEPPVGKSGVNHRLRKIEKIAEELRTGNEGHHHHHH
4. MLSIKQLSYALAVSKTLHFRKAADLCHVRQSTLSTGVSELERQLGIKIFERDNKKVLVTPLGREVLDKASNIMLQLEDMAHLDHSCGEP
5. MMTDRTERRRRLTHAACTPSANNQRTTRLPPHPGFFSWSNPACDDGLFLYRTTVSRGVDTQRRRRSHPGFFSCRYHPSTVSLARRHRGPGKRISLRTEISKDADPISTVTETRWFLLNFQCIEPPLEHHHHHH

1. not soluble
2. not soluble
3. soluble
4. not soluble
5. soluble
